FYI, the data here is from patent US8354430B2.

# target-or-test-system: H2R (Cavia porcellus, UniProt P47747)
# Sequence (P47747 whole entry): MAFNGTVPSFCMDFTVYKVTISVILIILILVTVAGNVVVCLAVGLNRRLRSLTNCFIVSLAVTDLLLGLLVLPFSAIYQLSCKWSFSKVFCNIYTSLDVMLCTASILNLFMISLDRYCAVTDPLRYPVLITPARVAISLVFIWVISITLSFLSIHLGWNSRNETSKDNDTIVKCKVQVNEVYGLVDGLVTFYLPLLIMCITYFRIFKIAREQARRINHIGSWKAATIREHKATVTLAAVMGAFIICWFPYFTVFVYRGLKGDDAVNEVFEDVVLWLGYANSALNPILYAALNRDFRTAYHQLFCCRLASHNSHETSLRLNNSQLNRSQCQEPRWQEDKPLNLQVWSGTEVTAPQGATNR
pKi: −log10 of the molar value.
recorded-endpoint: pKi

                                   molecule  observed_value
0  Cl.Clc1ccc(CCCOCCCN2CCCCC2)cc1 [monohydrochloride]           ~5.30

----------
# test-description: Aqueous solubility at 23° C.
# Assay type: physicochemical
# recorded-conditions: water
recorded-endpoint: solubility (mg/mL)

In [3]: df
Out[3]:
                                   molecule  observed_value
0  Clc1ccc(CCCOCCCN2CCCCC2)cc1.O=C(O)C(=O)O [Hydrogen oxalate, reference compound]              25

----------
Quick reference: solubility of the listed items.
# test-description: physchem
# recorded-conditions: pH 4.5, aqueous buffer
recorded-endpoint: solubility

                                   compound  recorded_endpoint  observed_value
0  Clc1ccc(CCCOCCCN2CCCCC2)cc1.O=C(O)C(=O)O [Hydrogen oxalate, reference compound]         solubility  10 to 30 mg/mL
1            Cl.Clc1ccc(CCCOCCCN2CCCCC2)cc1         solubility    > 1000 mg/mL

----------
# target-or-test-system: Human H1R (Homo sapiens, UniProt P35367)
# Sequence (P35367 whole entry): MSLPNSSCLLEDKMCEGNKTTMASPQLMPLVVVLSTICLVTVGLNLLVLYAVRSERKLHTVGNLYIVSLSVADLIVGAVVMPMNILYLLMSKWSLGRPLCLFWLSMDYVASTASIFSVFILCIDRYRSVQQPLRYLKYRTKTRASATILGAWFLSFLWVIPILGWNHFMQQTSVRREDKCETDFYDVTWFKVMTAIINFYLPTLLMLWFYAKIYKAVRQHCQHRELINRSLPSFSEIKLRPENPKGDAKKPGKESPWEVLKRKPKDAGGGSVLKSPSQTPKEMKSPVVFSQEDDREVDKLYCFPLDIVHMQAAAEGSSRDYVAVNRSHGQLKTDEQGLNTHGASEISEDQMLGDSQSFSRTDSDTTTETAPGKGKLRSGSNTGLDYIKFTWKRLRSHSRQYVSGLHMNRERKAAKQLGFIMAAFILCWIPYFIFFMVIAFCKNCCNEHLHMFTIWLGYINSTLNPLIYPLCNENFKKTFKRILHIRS
# test-description: Specific [3H]mepyramine binding at recombinant human H1 receptors expressed in HEK293 cells
# recorded-conditions: read-out: Ki or IC50, Human H1R
recorded-endpoint: Ki (µM)

>>> df
                                   molecule  recorded_endpoint  observed_value
0  Cl.Clc1ccc(CCCOCCCN2CCCCC2)cc1 [monohydrochloride]                 Ki            1.14

----------
# test-description: physchem
# recorded-conditions: pH 7.4, aqueous buffer
recorded-endpoint: solubility

>>> df
                                   molecule  recorded_endpoint   observed_value
0  Clc1ccc(CCCOCCCN2CCCCC2)cc1.O=C(O)C(=O)O [Hydrogen oxalate, reference compound]         solubility  30 to 100 mg/mL
1            Cl.Clc1ccc(CCCOCCCN2CCCCC2)cc1         solubility     > 1000 mg/mL

----------
# target-or-test-system: Mouse Brain native H3R (Mus musculus)
# Construct: was performed on mouse brain cortex membranes; from tissue; host or cells: mouse brain cortex membranes
# Sequence (P58406 whole entry): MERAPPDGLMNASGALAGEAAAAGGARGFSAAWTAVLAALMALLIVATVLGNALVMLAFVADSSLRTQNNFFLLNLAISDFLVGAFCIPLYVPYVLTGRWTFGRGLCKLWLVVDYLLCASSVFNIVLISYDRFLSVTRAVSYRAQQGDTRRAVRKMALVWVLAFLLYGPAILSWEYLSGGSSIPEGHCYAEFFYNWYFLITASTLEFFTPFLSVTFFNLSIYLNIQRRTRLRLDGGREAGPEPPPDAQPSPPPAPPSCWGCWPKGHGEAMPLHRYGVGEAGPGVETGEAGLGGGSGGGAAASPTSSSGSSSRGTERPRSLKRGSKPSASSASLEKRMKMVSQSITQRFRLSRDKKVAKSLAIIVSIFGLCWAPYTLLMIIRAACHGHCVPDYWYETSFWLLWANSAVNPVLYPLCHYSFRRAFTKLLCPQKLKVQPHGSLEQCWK
# test-description: Histamine H3 receptor binding, mouse brain cortex membranes
# recorded-conditions: radioligand [125I]iodoproxyfan
recorded-endpoint: Ki

>>> df
                                   molecule                  target_or_test_system  observed_value
0  Cl.Clc1ccc(CCCOCCCN2CCCCC2)cc1 [monohydrochloride]  Mouse Brain native H3R (Mus musculus)           14 nM

----------
# test-description: 13-week repeat oral dose study in rats
# recorded-conditions: rat, in vivo, read-out: NOAEL (no observed adverse effect level)
recorded-endpoint: NOAEL at 13 weeks

>>> df
                           smiles  observed_value
0  Cl.Clc1ccc(CCCOCCCN2CCCCC2)cc1    30 mg/kg/day

----------
Quick reference: solubility of the listed items.
# test-description: physchem
# recorded-conditions: water
recorded-endpoint: solubility

>>> df
                                   compound  observed_value
0  Clc1ccc(CCCOCCCN2CCCCC2)cc1.O=C(O)C(=O)O [Hydrogen oxalate, reference compound]  10 to 30 mg/mL
1            Cl.Clc1ccc(CCCOCCCN2CCCCC2)cc1    > 1000 mg/mL
